ASSAY_COMMENT: Drug metabolism in rat skin homogenate assessed as compound remaining after 0 mins by HPLC analysis
Type: ADME, tissue-based, Zone of skin
STUDY_CONDITIONS: read-out: Drug metabolism
QUANTITY_KIND: remaining at 0 h
Kindly format the answer as number then unit.

Query: I am curious: what remaining at 0 h value has been reported for CCC(=O)O[C@]1(C(=O)CO)CC[C@H]2[C@@H]3CCC4=CC(=O)CC[C@]4(C)[C@H]3CC[C@@]21C [CLASCOTERONE] ?
Reply: 99%

* * *

ASSAY_COMMENT: Drug metabolism in rat plasma assessed as compound remaining after 30 mins by HPLC analysis
Assay type: ADME, cell-free
STUDY_CONDITIONS: read-out: Drug metabolism
QUANTITY_KIND: remaining at 0.5 h (%)
Provide the reading as a plain figure in %.

Query: Reported remaining at 0.5 h for CCC(=O)O[C@]1(C(=O)CO)CC[C@H]2[C@@H]3CCC4=CC(=O)CC[C@]4(C)[C@H]3CC[C@@]21C [CLASCOTERONE] : what is it?
Reply: 80

Source listed as ChEMBL document CHEMBL3588838.
